- System: human APOE RNA
- Test details: Dose-dependent inhibition of human APOE RNA in differentiated SH-SY5Y cells, free uptake, 5 days (Example 5)
- Type: cell-based
- Settings: 205 nM, 5 days (Table 14)
Strand notation (5' to 3'): a small letter for the sugar, then the base; units joined by * are phosphorothioate-linked, units joined directly phosphodiester-linked; [ ] holds rarer units or linkages, { } end groups; capitals alone tell only the bases. [ms] = mesyl phosphoramidate linkage; e = 2'-O-(2-methoxyethyl) (MOE); k = constrained ethyl (cEt); [5mC] = 5-methylcytosine; d = 2'-deoxy (DNA)

{"Substance": "1746784 (k[5mC]*kT*kT*dG[ms]dG[ms]dT[ms]dG[ms]dA[ms]dA[ms]dT*d[5mC]*dT*dT*dT*dA[ms]dT*kT*kA*dA[ms]kA; antisense) [Compound 1746784]", "APOE RNA (% UTC)": "49 % UTC"}
{"Substance": "1778128: modified oligonucleotide complementary to human APOE RNA (eA*e[5mC]eTeTkGkG*dT*dG[ms]dA[ms]dA*dT*d[5mC]*dT*dT*dT*dA[ms]kTeT*eA*eA; antisense) [compound 1778128]", "APOE RNA (% UTC)": "74 % UTC"}
{"Substance": "1778111: modified oligonucleotide complementary to human APOE RNA (eA*e[5mC]eTeTeG*kG*dT*dG[ms]dA[ms]dA*dT*d[5mC]*dT*dT*dT*dA[ms]eTeT*eA*eA; antisense) [compound 1778111]", "APOE RNA (% UTC)": "32 % UTC"}
{"Substance": "1746804 (k[5mC]*kT*kT*dG[ms]dG[ms]dT[ms]dG[ms]dA[ms]dA[ms]dT*d[5mC]*dT*dT*dT*dA[ms]dT*dT[ms]kA*kA*kA; antisense) [Compound 1746804]", "APOE RNA (% UTC)": "84 % UTC"}
{"Substance": "1785599: modified oligonucleotide complementary to human APOE RNA (k[5mC]*kT*kT*dG[ms]dG[ms]dT[ms]dG[ms]dA[ms]dA[ms]dT[ms]d[5mC]*dT*dT*dT*dA*dT*kT*kA*dA[ms]kA; antisense) [compound 1785599]", "APOE RNA (% UTC)": "46 % UTC"}
{"Substance": "1757575 (eA*e[5mC]eTeT*kG*kG*dT*dG[ms]dA[ms]dA[ms]dT*d[5mC]*dT*dT*dT*dA[ms]kT*eT*eA*eA; antisense) [Compound 1757575]", "APOE RNA (% UTC)": "34 % UTC"}
{"Substance": "1778130: modified oligonucleotide complementary to human APOE RNA (eA*e[5mC]eTeTeG*kG*dT*dG[ms]dA[ms]dA*dT*d[5mC]*dT*dT*dT*dA[ms]kTkT*eA*eA; antisense) [compound 1778130]", "APOE RNA (% UTC)": "54 % UTC"}
{"Substance": "1785617: modified oligonucleotide complementary to human APOE RNA (k[5mC]*dT[ms]dT[ms]kG*dG[ms]kT*dG[ms]dA[ms]dA[ms]dT[ms]d[5mC]*dT*dT*dT*dA*dT*kT*kA*dA[ms]kA; antisense) [compound 1785617]", "APOE RNA (% UTC)": "59 % UTC"}
{"Substance": "1785598: modified oligonucleotide complementary to human APOE RNA (k[5mC]*kT*kT*dG[ms]dG[ms]dT[ms]dG[ms]dA[ms]dA[ms]dT*d[5mC]*dT*dT*dT*dA*dT[ms]kT*kA*dA[ms]kA; antisense) [compound 1785598]", "APOE RNA (% UTC)": "59 % UTC"}

====

- Test system: human APOE RNA
- Test details: Activity in APOE C57BL/6NTac-Apoeem7250 knock-in mice, single ICV bolus, 20 weeks (Example 13)
- Format: in vivo
- Settings: cortex; single ICV bolus 300 μg; 20 weeks post treatment; normalized to mouse Ppia
Strand notation (5' to 3'): a small letter for the sugar, then the base; units joined by * are phosphorothioate-linked, units joined directly phosphodiester-linked; [ ] holds rarer units or linkages, { } end groups; capitals alone tell only the bases. [ms] = mesyl phosphoramidate linkage; e = 2'-O-(2-methoxyethyl) (MOE); k = constrained ethyl (cEt); [5mC] = 5-methylcytosine; d = 2'-deoxy (DNA)
Assay readout: APOE RNA (% control) Cortex

{"Substance": "1778111: modified oligonucleotide complementary to human APOE RNA (eA*e[5mC]eTeTeG*kG*dT*dG[ms]dA[ms]dA*dT*d[5mC]*dT*dT*dT*dA[ms]eTeT*eA*eA; antisense) [compound 1778111]", "Tested target": "human APOE RNA", "Value units": "% control", "Value observed": 59}
{"Substance": "1785589 (k[5mC]*kT*kT*dG[ms]dG[ms]dT[ms]dG*dA*dA*dT[ms]d[5mC][ms]dT*dT*dT*dA*dT*kT*kA*dA[ms]kA; antisense) [Compound 1785589]", "Tested target": "human APOE RNA", "Value units": "% control", "Value observed": 49}
{"Substance": "1785619 (k[5mC]*dT[ms]dT[ms]kG*dG[ms]kT*dG*dA[ms]dA[ms]dT*d[5mC]*dT*dT*dT*dA[ms]dT*kT*kA*dA[ms]kA) [Compound 1785619]", "Tested target": "human APOE RNA", "Value units": "% control", "Value observed": 58}
{"Substance": "1757567 (eA*e[5mC]eTeTeG*dG*dT*dG*dA*dA*dT*d[5mC]*dT*dT*dT*kAeTeT*eA*eA; antisense) [Compound 1757567]", "Tested target": "human APOE RNA", "Value units": "% control", "Value observed": 80}

====

Catalogue of APOE RNA (% control) Cortex readings, one per entry.
- Test system: human APOE RNA
- Test details: Potency (dose response, ED50) in APOE C57BL/6NTac-Apoeem7250 knock-in mice, 4 weeks (Example 14)
- Type: in vivo
- Settings: cortex, ICV dose 100 μg
Strand notation (5' to 3'): a small letter for the sugar, then the base; units joined by * are phosphorothioate-linked, units joined directly phosphodiester-linked; [ ] holds rarer units or linkages, { } end groups; capitals alone tell only the bases. [ms] = mesyl phosphoramidate linkage; e = 2'-O-(2-methoxyethyl) (MOE); k = constrained ethyl (cEt); [5mC] = 5-methylcytosine; d = 2'-deoxy (DNA)

{"Substance": "1778131: modified oligonucleotide complementary to human APOE RNA (eA*e[5mC]eTeTeGkG*dT*dG[ms]dA[ms]dA*dT*d[5mC]*dT*dT*dT*dA[ms]kTkT*eA*eA; antisense) [compound 1778131]", "APOE RNA (% control) Cortex": 61}
{"Substance": "1746809 (k[5mC]*dT[ms]kT*dG[ms]kG*dT[ms]dG[ms]dA[ms]dA[ms]dT*d[5mC]*dT*dT*dT*dA[ms]dT*dT[ms]kA*kA*kA; antisense) [Compound 1746809]", "APOE RNA (% control) Cortex": 79}
{"Substance": "1778154: modified oligonucleotide complementary to human APOE RNA (e[5mC]*eT*eTeGeGeT*dG[ms]dA[ms]dA*dT*d[5mC]*dT*dT*dT*dA*dT*kTkAeA*eA; antisense) [compound 1778154]", "APOE RNA (% control) Cortex": 70}
{"Substance": "1693105: 6-10-4 MOE gapmer CTTGGTGAATCTTTATTAAA, linkages sosssszzzssssszssss (e[5mC]*eTeT*eG*eG*eT*dG[ms]dA[ms]dA[ms]dT*d[5mC]*dT*dT*dT*dA[ms]dT*eT*eA*eA*eA) [compound 1693105]", "APOE RNA (% control) Cortex": 77}

====

- System: human APOE RNA
- Test details: Activity in APOE C57BL/6NTac-Apoeem7250 knock-in mice, single ICV bolus, 4 weeks (Example 10)
- Type: in vivo
- Settings: cortex; single ICV bolus 300 μg; 4 weeks post treatment; normalized to mouse Ppia
Strand notation (5' to 3'): a small letter for the sugar, then the base; units joined by * are phosphorothioate-linked, units joined directly phosphodiester-linked; [ ] holds rarer units or linkages, { } end groups; capitals alone tell only the bases. [ms] = mesyl phosphoramidate linkage; e = 2'-O-(2-methoxyethyl) (MOE); k = constrained ethyl (cEt); [5mC] = 5-methylcytosine; d = 2'-deoxy (DNA)
Criterion: APOE RNA (% control) Cortex meeting or surpassing 40 % control. Met: met. Not met: not met.

{"Substance": "1779706 (e[5mC]*eTeTkGkG*dT[ms]dG[ms]dA[ms]dA*dT*d[5mC]*dT*dT*dT*dA*dT*eT*eA*eA*eA; antisense) [Compound 1779706]", "Classification": "not met"}
{"Substance": "1778109: 6-10-4 MOE gapmer ACTTGGTGAATCTTTATTAA, linkages sooossszzsssssszoss (eA*e[5mC]eTeTeG*eG*dT*dG[ms]dA[ms]dA*dT*d[5mC]*dT*dT*dT*dA[ms]eTeT*eA*eA) [compound 1778109]", "Classification": "met"}
{"Substance": "1746796 (k[5mC]*kT*dT[ms]dG[ms]kG*dT[ms]dG[ms]dA[ms]dA[ms]dT*d[5mC]*dT*dT*dT*dA[ms]dT*kT*dA[ms]kA*kA; antisense) [Compound 1746796]", "Classification": "met"}
{"Substance": "1778154: modified oligonucleotide complementary to human APOE RNA (e[5mC]*eT*eTeGeGeT*dG[ms]dA[ms]dA*dT*d[5mC]*dT*dT*dT*dA*dT*kTkAeA*eA; antisense) [compound 1778154]", "Classification": "not met"}
